The values you see were collected from patent US20260297129A1.

Readings of remaining at 1 h, 1 µM for the listed compounds
- assay procedure: Protease stability in simulated gastric fluids (FaSSGF) (Table 7)
- Assay type: in vitro ADME
- measurement parameters: fassgf with pepsin, 60 min, 37° C., read-out: Remaining percentage of peptide compound, FaSSGF 60 (min)
Numbered stars: 1 amine (or outer) side, 2 acyl side, 3 side chain; on linkers, the order of the positions; unused ones are H or OH. Bridge positions count the residues as written; N and C are the ends. Square brackets hold non-standard residues; d marks the D form. Peptide text beside a SMILES is read from it. * marks the point of attachment. Lys(Me,(CH2)4NMe(CH2)5CO) = CN(CCCCCC(=O)[*:3])CCCCN(C)CCCC[C@H](N[*:1])C(=O)[*:2]; Trp(7-Me) = Cc1cccc2c(C[C@H](N)C(=O)O)c[nH]c12; NH(CH2)9CO = O=C(CCCCCCCCCN[*:1])[*:2]; 2Nal = N[C@@H](Cc1ccc2ccccc2c1)C(=O)O; 3Pal = N[C@@H](Cc1cccnc1)C(=O)O; Thp = NC1(C(=O)O)CCOCC1; Me2NCH2CH2 = CN(C)CC*; Aib = CC(C)(N)C(=O)O; Aoc = NCCCCCCCC(=O)O; Sar = CNCC(=O)O
Only the number, expressed in %, is required.

compound | remaining at 1 h, 1 µM, %
Cc1cccc2c(C[C@@H]3NC(=O)CCCCCN(C)CCCCN(C)CCCC[C@@H](C(=O)N[C@@H](CC(N)=O)C(=O)N[C@@H](Cc4cccnc4)C(=O)N(C)CC(N)=O)NC(=O)C(C)(C)NC(=O)[C@H](Cc4ccc5ccccc5c4)NC(=O)[C@H](Cc4ccc(OCCN(C)C)cc4)NC(=O)C4(CCOCC4)NC(=O)[C@H](CCC(N)=O)NC3=O)c[nH]c12 [compound 31] ([Trp(7-Me)]Q[Thp]Y(Me2NCH2CH2)[2Nal][Aib][Lys(Me,(CH2)4NMe(CH2)5CO)]N[3Pal][Sar]-NH2; lactam N-7) | 100
Cc1cccc2c(C[C@@H]3NC(=O)CCCCCCCCCNC(=O)CC[C@@H](C(=O)N[C@@H](CC(N)=O)C(=O)N[C@@H](Cc4cccnc4)C(=O)N(C)CC(N)=O)NC(=O)C(C)(C)NC(=O)[C@H](Cc4ccc5ccccc5c4)NC(=O)[C@H](Cc4ccc(OCCN(C)C)cc4)NC(=O)C4(CCOCC4)NC(=O)[C@H](CC(C)C)NC3=O)c[nH]c12 [compound 8] ([NH(CH2)9CO][Trp(7-Me)]L[Thp]Y(Me2NCH2CH2)[2Nal][Aib]EN[3Pal][Sar]-NH2; lactam N-8) | 7
CC(=O)NCCCC[C@@H]1NC(=O)[C@H](Cc2c[nH]c3c(C)cccc23)NC(=O)CCCCCN(C)CCCCN(C)CCCC[C@@H](C(=O)N[C@@H](CC(N)=O)C(=O)N[C@@H](Cc2cccnc2)C(=O)N(C)CC(N)=O)NC(=O)C(C)(C)NC(=O)[C@H](Cc2ccc3ccccc3c2)NC(=O)[C@H](Cc2ccc(OCCN(C)C)cc2)NC(=O)C2(CCOCC2)NC1=O [compound 18] ([Trp(7-Me)]K(Ac)[Thp]Y(Me2NCH2CH2)[2Nal][Aib][Lys(Me,(CH2)4NMe(CH2)5CO)]N[3Pal][Sar]-NH2; lactam N-7) | 100
Cc1cccc2c(C[C@@H]3NC(=O)CCCCCCCNC(=O)CC[C@@H](C(=O)N[C@@H](CC(N)=O)C(=O)N[C@@H](Cc4cccnc4)C(=O)N(C)CC(N)=O)NC(=O)C(C)(C)NC(=O)[C@H](Cc4ccc5ccccc5c4)NC(=O)[C@H](Cc4ccc(OCCN(C)C)cc4)NC(=O)C4(CCOCC4)NC(=O)[C@H](CC(C)C)NC3=O)c[nH]c12 [compound 9] ([Aoc][Trp(7-Me)]L[Thp]Y(Me2NCH2CH2)[2Nal][Aib]EN[3Pal][Sar]-NH2; lactam N-8) | 59

Returns the measured remaining at 1 h, 1 µM for the input compound. Input: Cc1cccc2c(C[C@@H]3NC(=O)CCCCCN(C)CCCCN(C)CCCC[C@@H](C(=O)NCC(=O)N[C@@H](Cc4cccnc4)C(=O)N(C)CC(N)=O)NC(=O)C(C)(C)NC(=O)[C@H](Cc4ccc5ccccc5c4)NC(=O)[C@H](Cc4ccc(OCCN(C)C)cc4)NC(=O)C4(CCOCC4)NC(=O)[C@H](CCC(N)=O)NC3=O)c[nH]c12 [compound 26] ([Trp(7-Me)]Q[Thp]Y(Me2NCH2CH2)[2Nal][Aib][Lys(Me,(CH2)4NMe(CH2)5CO)]G[3Pal][Sar]-NH2; lactam N-7)
95

###

- assay procedure: Solubility of peptide compounds in buffer formulations (Table 5)
- Assay type: physicochemical
- measurement parameters: aqueous buffer; 50 mM phosphate buffer pH 6.5, 2 h agitation, target 1 mg/ml; read-out: Solubility, Buffer pH 6.5
Numbered stars: 1 amine (or outer) side, 2 acyl side, 3 side chain; on linkers, the order of the positions; unused ones are H or OH. Bridge positions count the residues as written; N and C are the ends. Square brackets hold non-standard residues; d marks the D form. Peptide text beside a SMILES is read from it. * marks the point of attachment. Lys(Me,(CH2)4NMe(CH2)4CO) = CN(CCCCC(=O)[*:3])CCCCN(C)CCCC[C@H](N[*:1])C(=O)[*:2]; Trp(7-Me) = Cc1cccc2c(C[C@H](N)C(=O)O)c[nH]c12; 2Nal = N[C@@H](Cc1ccc2ccccc2c1)C(=O)O; 3Pal = N[C@@H](Cc1cccnc1)C(=O)O; AEEEA = NCCOCCOCCOCC(=O)O; Thp = NC1(C(=O)O)CCOCC1; Me2NCH2CH2 = CN(C)CC*; Aib = CC(C)(N)C(=O)O; Sar = CNCC(=O)O
measured quantity: solubility at 2 h

molecule | solubility at 2 h
Cc1cccc2c(C[C@@H]3NC(=O)COCCOCCOCCNC(=O)CC[C@@H](C(=O)N[C@@H](CC(N)=O)C(=O)N[C@@H](Cc4cccnc4)C(=O)N(C)CC(N)=O)NC(=O)C(C)(C)NC(=O)[C@H](Cc4ccc5ccccc5c4)NC(=O)[C@H](Cc4ccc(OCCN(C)C)cc4)NC(=O)C4(CCOCC4)NC(=O)[C@H](CCC(N)=O)NC3=O)c[nH]c12 [compound 14] ([AEEEA][Trp(7-Me)]Q[Thp]Y(Me2NCH2CH2)[2Nal][Aib]EN[3Pal][Sar]-NH2; lactam N-8) | ≥ 1280 µg/mL

Returns the measured solubility at 2 h for the input molecule. Input: CC(=O)NCCCC[C@@H]1NC(=O)[C@H](Cc2c[nH]c3c(C)cccc23)NC(=O)CCCCN(C)CCCCN(C)CCCC[C@@H](C(=O)N[C@@H](CC(N)=O)C(=O)N[C@@H](Cc2cccnc2)C(=O)N(C)CC(N)=O)NC(=O)C(C)(C)NC(=O)[C@H](Cc2ccc3ccccc3c2)NC(=O)[C@H](Cc2ccc(OCCN(C)C)cc2)NC(=O)C2(CCOCC2)NC1=O [compound 32] ([Trp(7-Me)]K(Ac)[Thp]Y(Me2NCH2CH2)[2Nal][Aib][Lys(Me,(CH2)4NMe(CH2)4CO)]N[3Pal][Sar]-NH2; lactam N-7)
≥ 1080 µg/mL

###

- assay procedure: Protease stability in simulated intestinal fluids (FaSSIF) (Table 7)
- Type: in vitro ADME
- measurement parameters: fassif with pancreatin, 240 min, 37° C., read-out: Remaining percentage of peptide compound, FaSSIF 240 (min)
Numbered stars: 1 amine (or outer) side, 2 acyl side, 3 side chain; on linkers, the order of the positions; unused ones are H or OH. Bridge positions count the residues as written; N and C are the ends. Square brackets hold non-standard residues; d marks the D form. Peptide text beside a SMILES is read from it. * marks the point of attachment. Lys(Me,(CH2)4NMe(CH2)4CO) = CN(CCCCC(=O)[*:3])CCCCN(C)CCCC[C@H](N[*:1])C(=O)[*:2]; Trp(7-Me) = Cc1cccc2c(C[C@H](N)C(=O)O)c[nH]c12; NH(CH2)9CO = O=C(CCCCCCCCCN[*:1])[*:2]; 2Nal = N[C@@H](Cc1ccc2ccccc2c1)C(=O)O; 3Pal = N[C@@H](Cc1cccnc1)C(=O)O; Thp = NC1(C(=O)O)CCOCC1; Me2NCH2CH2 = CN(C)CC*; Aib = CC(C)(N)C(=O)O; Sar = CNCC(=O)O
Readings of remaining at 4 h, 1 µM for the listed molecules
Only the number, expressed in %, is required.

molecule | observed result
Cc1cccc2c(C[C@@H]3NC(=O)CCCCCCCCCNC(=O)CC[C@@H](C(=O)N[C@@H](CC(N)=O)C(=O)N[C@@H](Cc4cccnc4)C(=O)N(C)CC(N)=O)NC(=O)C(C)(C)NC(=O)[C@H](Cc4ccc5ccccc5c4)NC(=O)[C@H](Cc4ccc(OCCN(C)C)cc4)NC(=O)C4(CCOCC4)NC(=O)[C@H](CC(C)C)NC3=O)c[nH]c12 [compound 8] ([NH(CH2)9CO][Trp(7-Me)]L[Thp]Y(Me2NCH2CH2)[2Nal][Aib]EN[3Pal][Sar]-NH2; lactam N-8) | 72

Returns the measured remaining at 4 h, 1 µM for the input molecule. Input: CC(=O)NCCCC[C@@H]1NC(=O)[C@H](Cc2c[nH]c3c(C)cccc23)NC(=O)CCCCN(C)CCCCN(C)CCCC[C@@H](C(=O)N[C@@H](CC(N)=O)C(=O)N[C@@H](Cc2cccnc2)C(=O)N(C)CC(N)=O)NC(=O)C(C)(C)NC(=O)[C@H](Cc2ccc3ccccc3c2)NC(=O)[C@H](Cc2ccc(OCCN(C)C)cc2)NC(=O)C2(CCOCC2)NC1=O [compound 32] ([Trp(7-Me)]K(Ac)[Thp]Y(Me2NCH2CH2)[2Nal][Aib][Lys(Me,(CH2)4NMe(CH2)4CO)]N[3Pal][Sar]-NH2; lactam N-7)
84
